What IC50 at 72 h was measured for each of the following?
Assay details: Cell viability
Format: cell-based
Setup conditions: African green monkey, Vero cells

Assign IC50 at 72 h to the following record: CCCCCCCCOc1ccc(/C=C/C(=O)O)cc1OC [Compound 3e]
> 100 µM

Please report the measured IC50 at 72 h for CCCOc1ccc(/C=C/C(=O)O)cc1OC [Compound 3b]
> 100 µM

Tell me IC50 at 72 h reported for CCCCCCCCCCOc1ccc(/C=C/C(=O)O)cc1OC [Compound 3f]
> 100 µM

Dear colleague, please send me the reported IC50 at 72 h for CCCCCOc1c(OC)cc(C(=O)O)cc1OC [Compound 5c, 3,5-Dimethoxy-4-(pentyloxy)benzoic acid] when you can.
> 100 µM

Reference for the values: paper PMC11250141
